protocol_details: Observed MRT infinity in CD-1 mouse at 5 mg/kg, iv measured upto 24 hrs by UPLC analysis
Format: ADME, organism-based
experimental_setup: in vivo
MRT inf listing for selected compounds.
Unit h implied. Number only.

| given_smiles | unit_name | MRT inf |
| --- | --- | --- |
| COc1cc(OCc2cccc(-c3ccccc3)c2C)cc(OC)c1CNCCO[C@H]1O[C@H](CO)[C@@H](O)[C@H](O)[C@@H]1O | h | 1.5 |

Now, please, on to the next compound.
Entry COc1nc(OCc2cccc(-c3ccccc3)c2C)ccc1CNCCO[C@@H]1O[C@H](CO)[C@@H](O)[C@H](O)[C@H]1NC(C)=O has what MRT inf?
3.58
